Field: percent inhibition of cyc-luc turnover, (B) Mitotic extracts. Provide a value for each of the compounds that follow.
Tested on: cyclin-luciferase (cyc-luc) turnover, activated APC/C
Assay Name: cyc-luc turnover in mitotic Xenopus extracts (pre-treated with non-degradable cyclin B)
Format: biochemical
Condition Parameters: 200 μM compound; extracts in mitosis before addition of compound

Q: I am curious: what percent inhibition of cyc-luc turnover, (B) Mitotic extracts value has been reported for `CC(=O)Nc1ncnc2[nH]ncc12` ?
A: 3%

Q: Proceed to `O=C(Nc1ccc(/C=C/c2ccc(NC(=O)c3cc(S(=O)(=O)O)c4cccnc4c3O)cc2S(=O)(=O)O)c(S(=O)(=O)O)c1)c1cc(S(=O)(=O)O)c2cccnc2c1O`
A: 22%

Q: Lookup `O[Si](c1ccccc1)(c1ccccc1)c1ccccc1.O[Si](c1ccccc1)(c1ccccc1)c1ccccc1.O[Si](c1ccccc1)(c1ccccc1)c1ccccc1.[O]=[V]`
A: 8%

Q: Try `CC(=O)Nc1ccc(SSc2ccc(NC(C)=O)c3cccnc23)c2ncccc12` next.
A: 100%

Q: Next: `O=c1[nH]c(O)nc2cc3[nH]ncc3cc12`
A: 0%

Q: Same thing, different compound: `ON=c1[nH]cnc2[nH]cc(Br)c12`
A: 0%

Q: Next: `O=S(=O)(O)c1ccc2cc3c(cc2c1)NN(c1ccc(/C=C/c2ccc(N4Nc5cc6ccc(S(=O)(=O)O)cc6cc5N4)cc2S(=O)(=O)O)c(S(=O)(=O)O)c1)N3`
A: 100%

Q: Try the compound `O=C(NNC(=S)NC(=O)C12CC3CC(CC(C3)C1)C2)c1ccncc1`
A: 0%
